Test: Chemical stability in 30% hydrogen peroxide assessed as rate of oxidation by UV spectroscopy
Format: physicochemical
Listing of recorded half-life by entry.

# compound, u, half-life
records = [
    ("CCOC(=O)C(C(=O)O)N1C=CCC(C(=O)N/N=C/c2ccc(OC)cc2)=C1 (stereo unspecified)", "min", 3.35),
    ("CN(C)c1ccc(/C=N/NC(=O)C2C=CN(C(C(=O)O)C(=O)O)C=C2)cc1", "min", 3.15),
    ("CCOC(=O)C(C(=O)O)N1C=CC(C(=O)N/N=C/c2ccccc2O)C=C1 (stereo unspecified)", "min", 4.08),
    ("CCOC(=O)C(C(=O)O)N1C=CC(C(=O)N/N=C/c2ccccc2Cl)C=C1 (stereo unspecified)", "min", 5.3),
    ("CN1C=CC(C(=O)N/N=C/c2ccccc2Cl)C=C1", "min", 6.3),
    ("CCOC(=O)C(C(=O)O)N1C=CCC(C(=O)N/N=C/c2ccccc2O)=C1 (stereo unspecified)", "min", 3.85),
]

---

Experiment: Stability in Swiss-Webster mouse brain homogenate assessed as rate of oxidation by HPLC
Assay type: ADME, tissue-based

# molecule, half-life [min]
rows = [
    ("CCOC(=O)C(C(=O)O)N1C=CCC(C(=O)N/N=C/c2ccc(OC)cc2)=C1 (stereo not drawn)", 10.1),
    ("CN(C)c1ccc(/C=N/NC(=O)C2C=CN(C(C(=O)O)C(=O)O)C=C2)cc1", 9.58),
    ("CCOC(=O)C(C(=O)O)N1C=CC(C(=O)N/N=C/c2ccccc2Cl)C=C1 (stereo not drawn)", 10.7),
]

---

Experiment: Stability in phosphate buffer at pH 5.8 after 4 days by HPLC
Format: physicochemical

# compound, half-life
records = [
    ("CCOC(=O)C(C(=O)O)N1C=CC(C(=O)N/N=C/c2ccccc2Cl)C=C1 (stereo not drawn)", "4.2 h"),
    ("CCOC(=O)C(C(=O)O)N1C=CCC(C(=O)N/N=C/c2ccc(OC)cc2)=C1 (stereo not drawn)", "3.27 h"),
    ("CN(C)c1ccc(/C=N/NC(=O)C2C=CN(C(C(=O)O)C(=O)O)C=C2)cc1", "2.82 h"),
]

---

Assay: Chemical stability in ferricyanide solution assessed as rate of oxidation by UV spectroscopy
Format: physicochemical
Listing of recorded half-life by entry.

# compound, u, half-life
records = [
    ("CCOC(=O)C(C(=O)O)N1C=CC(C(=O)N/N=C/c2ccccc2Cl)C=C1 (stereo unspecified)", "min", 3.01),
    ("CN(C)c1ccc(/C=N/NC(=O)C2C=CN(C(C(=O)O)C(=O)O)C=C2)cc1", "min", 1.14),
    ("CCOC(=O)C(C(=O)O)N1C=CC(C(=O)N/N=C/c2ccccc2O)C=C1 (stereo unspecified)", "min", 2.48),
    ("CCOC(=O)C(C(=O)O)N1C=CCC(C(=O)N/N=C/c2ccccc2O)=C1 (stereo unspecified)", "min", 2.17),
    ("CCOC(=O)C(C(=O)O)N1C=CCC(C(=O)N/N=C/c2ccc(OC)cc2)=C1 (stereo unspecified)", "min", 2.1),
    ("CN1C=CC(C(=O)N/N=C/c2ccccc2Cl)C=C1", "min", 3.3),
]

---

Test: Stability in mouse plasma assessed as rate of oxidation by HPLC
Assay type: ADME, cell-free
value.kind: half-life (min)

# molecule, value.kind, recorded.result
records = [
    ("CN(C)c1ccc(/C=N/NC(=O)C2C=CN(C(C(=O)O)C(=O)O)C=C2)cc1", "half-life", 18.9),
    ("CCOC(=O)C(C(=O)O)N1C=CCC(C(=O)N/N=C/c2ccc(OC)cc2)=C1 (stereo not drawn)", "half-life", 21.8),
    ("CCOC(=O)C(C(=O)O)N1C=CC(C(=O)N/N=C/c2ccccc2Cl)C=C1 (stereo not drawn)", "half-life", 23.3),
]
